Target: T1, hepatitis A virus (HAV) full particle, genotype TZ84 (HAV IA genotype) (hepatitis A virus, genotype TZ84 (HAV …))
T1 chain 1: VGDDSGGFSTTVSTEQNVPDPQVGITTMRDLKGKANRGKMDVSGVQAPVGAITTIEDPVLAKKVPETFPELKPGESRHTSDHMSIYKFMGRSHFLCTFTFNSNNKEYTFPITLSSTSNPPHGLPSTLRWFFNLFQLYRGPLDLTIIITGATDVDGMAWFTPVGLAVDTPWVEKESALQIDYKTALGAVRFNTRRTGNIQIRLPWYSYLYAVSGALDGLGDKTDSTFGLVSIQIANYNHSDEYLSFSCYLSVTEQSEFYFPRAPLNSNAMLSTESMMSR
T1 chain 2: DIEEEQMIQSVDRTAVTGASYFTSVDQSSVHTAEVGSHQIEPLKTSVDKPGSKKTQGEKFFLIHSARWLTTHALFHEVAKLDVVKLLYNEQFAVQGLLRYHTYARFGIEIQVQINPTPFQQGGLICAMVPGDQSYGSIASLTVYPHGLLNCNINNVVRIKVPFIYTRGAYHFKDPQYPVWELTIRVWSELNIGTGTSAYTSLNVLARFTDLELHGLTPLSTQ
T1 chain 3: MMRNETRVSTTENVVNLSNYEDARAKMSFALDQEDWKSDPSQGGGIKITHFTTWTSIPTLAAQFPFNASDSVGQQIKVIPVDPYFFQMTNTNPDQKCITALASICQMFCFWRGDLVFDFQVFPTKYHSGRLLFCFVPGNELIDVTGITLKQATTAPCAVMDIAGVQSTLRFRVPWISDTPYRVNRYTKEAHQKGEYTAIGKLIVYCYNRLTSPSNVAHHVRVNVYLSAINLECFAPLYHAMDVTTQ
Test: SPR
Can you tell me pKd for the items I'm about to list?
Note on units: pKd is unitless, being -log10 of a concentration expressed in mol/L.

Lookup: Suppose we examine the binder R10 Fab (fragment of antigen binding of the neutralizing monoclonal antibody R10) (Fab, V domains shown) VH: EVKLVESGGGSVKPGGSLKLSCAASGFSFSTYGMSWVRQTPEKRLEWVATISGGGGYTYYPDSVKGRFTISRDNARNILYLQMSSLRSGDTAMYYCARRVTTVAEYYFDYWGQGTTLTVSS VL: DIVLTQSPAIMSASPGEKVTMTCSASSSVSYIHWYQQKSGTSPKRWIYDTSRLAFGVPGRFSGSGSGTSYSLTISSMEAEDAATYYCQQWSSNYTFGGGTNLEIK ; what pKd value has been reported?
Found: 8.09

Lookup: Next: F4 Fab (fragment of antigen binding of the neutralizing monoclonal antibody F4) (Fab, V domains shown) VH: EVKLVESGGGLVKPGGSLKLSCAASLFTHNNYGMSWVRQTPEKRLEWVATINSTASYTYYPDSVKGRFTISRDNAKNTLYLQMSSLRSGDTAIYYCARKNDTFSDYYFDYWGQGTTLTVSS VL: DIVLTQSPAIMSASPGERVTMTCSAHVSTDYMHWYQQKSGTSPKRWIYDTSKLASTVPDRFSGSGSGTSYSLTISSMEAEDAATYYCQQWNNNAYTYGGGTKLEIK
Found: 8.29

Lookup: Follow-up item: F6 Fab (fragment of antigen binding of the neutralizing monoclonal antibody F6) (Fab, V domains shown) VH: EVKLVESGGGLVKPGGSLKLSCAASMYNFQHYGMSWVRQTPEKRLEWVATIQTNATYTYYPDSVKGRFTISRDNARNILYLQMSSLRSGDTAMYYCARRDNIECHYYFDYWGQGTTLTVSS VL: DIVLTQSPAIMSASPGERVTMTCSAHQYVSYMHWYQQKSGTSPKRWIYDTSRLADAIPQRFSGRGSGTSYSLTISSMEAEDAATYYCQQWQSNPYTFGGGTKLEIK
Found: 8.66

Lookup: Field entry: F9 Fab (fragment of antigen binding of the neutralizing monoclonal antibody F9) (Fab, V domains shown) VH: EVKLVESGGGLVKPGGSLKLSCAASAFTITTYGMSWVRQTPEKRLEWVATITAGGSYTYYPDSVKGRFTISRDNAKNTLYLQMSSLRSGDTAMYYCARKVTSVAEYYFDYWGQGTTLTVSS VL: DIVLTQSPAIMSASPGEKVTMTCSATSGLSYIHWYQQKSGTSPKRWIYDTSKLAFGAPARFSGSGSGTSYSLTISSMEAEDAATYYCQQWDVNPYTFGGGTKLEIK
Found: 8.14

Lookup: Cool, now F7 Fab (fragment of antigen binding of the neutralizing monoclonal antibody F7) (Fab, V domains shown) VH: EVKLVESGGGLVKPGGSLKLSCAASIHTFNCYGMSWVRQTPEKGLEWVATIDAASSYTYYPDSVKGRFTISRDNAKNTLYLQMSSLRSGDTAMYYCARRDNTTAQYYFDYWGQGTTLTVSS VL: DIVLTQSPAIMSASPGEKVTMTCSAASSVSYIHWYQQKSGTSPKRWIYDTSRLAFGVPTRFSGSGSGTSYSLTISSMEAEDAATYYCQQWSTNPYTFGGGTKLEIK
Found: 8.15
